Data provenance: PubChem BioAssay

assay: E. coli growth modulation, two-sided OD650, primary screen, E. coli filamentation project, strain DRC41, 24 h (AID 1093); conditions: OD650, 24 h, higher = more signal, called active from +8 up or from −8 down;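 also: MC1000 strain lacking acrAB efflux and sulA so SOS filamentation is blocked; test concentration not given here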
z-score vs 0.4: at or above is yes (1), below is no (0).

Inquiry: Does the molecule COC(=O)CC=C[C@H](C)[C@@H](OCc1cccc(Br)c1)[C@@H](C)[C@H](OC)C1CCCCC1 have recorded z-score that is 0.4 or more?
Reply text: no (0)

###

assay: basal 3T3-L1 adipocyte mitochondrial potential changes, profiling panel, cell-based, JC-1 fluorescence, 3T3-L1 adipocytes, 24 h, 100 nL compound (AID 1168); conditions: JC-1 mitochondrial fluorescence, higher = more signal, called active from +8 up or from −8 down; also: test concentration not given here
Measured z-score, listed per entry for reference.
Lab note: record the figure alone, no unit after it.

Below: 8 molecules and their reported z-score.
MOLECULE	MEASUREMENT TYPE	MEASURED NUMBER
CC(CCN1CCCCc2nc(C)c(C)cc21)=NO[C@@H](C)c1cn([C@H](CO)Cc2ccccc2)nn1	z-score	-0.151
CCOC(=O)[C@H](CC(C)C)NC(=O)CCC1CC(OC(=O)NCCc2ccc(F)cc2)CC2(CCCC(COC(=O)NCC3CCCCC3)O2)O1 (stereo partly specified)	z-score	-0.293
CO[C@@H]1COC(=O)[C@@H]2CCCN2C(=O)[C@@H](C)COC(=O)CC=C[C@H]1C	z-score	-1.49
O=C(C=Cc1ccc2c(c1)OCO2)c1ccc(F)cc1	z-score	-0.211
O=C1C[C@@H](O)[C@@H](O)[C@@H]2[C@@H]3C(=O)N(C[C@@H]4CCCO4)C(=O)[C@@H]3CC[C@H]12	z-score	0.763
CC(C)CON=C1C[C@@H](O)[C@@H](O)[C@@H]2[C@@H]3C(=O)N(Cc4ccc5c(c4)OCO5)C(=O)[C@@H]3CC[C@H]12	z-score	-0.589
O=C1OCCC=C1C(O)CCc1ccccc1 (stereo unspecified)	z-score	-0.54
CC(=O)OC[C@H]1O[C@H](CCON=C2[C@H]3CCn4c(=O)n(-c5ccccc5)c(=O)n4[C@H]3[C@H](O)[C@@H]3O[C@H]23)C=C[C@@H]1OC(C)=O	z-score	-0.91

response.value for COc1ccc(O[C@@H]2[C@H](O)CO[C@H]2C=Cc2ccccc2)cc1 (field: z-score) = 0.0785

For record CCOC(=O)[C@H](CC(C)C)NC(=O)CCC1CC(OC(=O)NCc2ccc3c(c2)OCO3)CC2(CCCC(COC(=O)NCc3cccc(C(F)(F)F)c3)O2)O1 (stereo partly specified) the listed z-score is -0.176

z-score recorded for this molecule, CON=C[C@@H](C)[C@H](OCc1ccccc1)C(C)C , is 0.634

Reported z-score for CCOC(=O)[C@H](CC(C)C)NC(=O)CCC1CC(OC(=O)NCc2cccc3ccccc23)CC2(CCCC(COC(=O)NCC3CCCCC3)O2)O1 (stereo partly specified) was -0.0758

The recorded z-score for entry Cc1cc2c(nc1C)CCCCN2CC(C)ON=C1[C@H]2CCn3c(=O)n(-c4ccccc4)c(=O)n3[C@H]2[C@H](O)[C@@H]2O[C@H]12 (stereo partly specified) equals -0.521

# z-score of C[n+]1ccc(-c2ccc(CO)cc2)cc1 = -0.872

get_value(item= COC(=O)CC=C[C@@H](C)[C@@H](C=NOC[C@@H](O)[C@H]1O[C@@H]2OC(C)(C)O[C@@H]2[C@H]1O)NS(=O)(=O)c1ccc(C)cc1 , readout=z-score) returns 0.158

Memo: O=C(NN=C1C[C@@H](O)[C@@H](O)[C@@H]2[C@@H]3C(=O)N(C[C@@H]4CCCO4)C(=O)[C@@H]3CC[C@@H]12)OCc1ccccc1 , reported z-score: 0.131

The molecule listed as Cn1c(=O)n2n(c1=O)[C@H]1[C@H](O)[C@@H]3O[C@@H]3C(=O)[C@H]1CC2 has a reported z-score of 0.194

Sure, the documented z-score for CCOC(=O)[C@H](CC(C)C)NC(=O)CCC1CC(OC(=O)NCc2cccc3ccccc23)CC2(CCCC(COC(=O)NCc3ccncc3)O2)O1 (stereo partly specified) is 0.666

Value of measured z-score for the entry CCCNC(=O)OC[C@H]1O[C@H](CCON=C(C)C)C=C[C@@H]1Oc1ccc(OC)cc1 : -1.43

Short answer for CO[C@@H]1COC(=O)CC=C[C@@H](C)[C@H](OC)COC(=O)[C@@H](C)COC(=O)CC=C[C@H]1C : z-score was -0.661

Documented z-score of CCOC(=O)NN=C1C[C@@H](O)[C@@H](O)[C@@H]2[C@@H]3C(=O)N(c4cccc(Oc5ccccc5)c4)C(=O)[C@@H]3CC[C@H]12 : 0.675

Recorded result, Cc1ccc(S(=O)(=O)N[C@H]2COC(=O)CC=C[C@@H](C)COC(=O)CC=C[C@@H]2C)cc1 , z-score: -0.393

Sure, the documented z-score for CCOC(=O)[C@H](CC(C)C)NC(=O)CCC1CC(OC(=O)NCc2ccc3c(c2)OCO3)CC2(CCCC(COC(=O)NCC(c3ccccc3)c3ccccc3)O2)O1 (stereo partly specified) is 0.604

Lab book: z-score of C[C@H]1CC[C@H]2C(=O)O[C@H](COc3ccc(C(C)(C)C)cc3)CN2[C@@H]1c1ccc(Br)cc1 noted as -0.372

Record CCOC(=O)CCN1C(=O)[C@H]2[C@H]3[C@H](O)[C@H](O)CC(=NNC(=O)OCc4ccccc4)[C@@H]3CC[C@H]2C1=O . Reported z-score: -0.773

response.value for CO[C@H]1COC(=O)[C@@H]2CCCN2C(=O)CC=C[C@@H](C)[C@H](OC)COC(=O)[C@@H](OCc2ccccc2)C=C[C@@H]1C (field: z-score) = 0.377
